Origin of values: patent US9914730B2

- STUDY SYSTEM: full-length human PKCι (Homo sapiens, UniProt P41743)
- Construct: Recombinant, full-length human PKCι expressed in Sf21 insect cells is also commercially available; purchased; host or cells: Sf21 insect cells
- EXPERIMENT DESCRIPTION: PKCι IC50 IMAP assay, full-length PKCι at 150 μM ATP
- Format: biochemical
- STATED CONDITIONS: read-out: IC50 in IMAP assay against full length PKCi at 150 μM ATP
pIC50: −log10 of the molar value.
MEASURED PARAMETER: pIC50

[[record]]
smiles_structure = "c1cc(-c2nc(N3CCNCC3)c3c(C4CC4)cncc3n2)c2cc[nH]c2n1"
data_value = "> 7.00"

[[record]]
smiles_structure = "COc1cc(Nc2cc(-c3nc(N4CCNCC4)c4c(C5CC5)cncc4n3)ccn2)c(F)cc1F"
data_value = "> 7.00"


# next molecule below
// field: pIC50; key: "OC[C@@H](Nc1cc(-c2nc(N3CCNCC3)c3c(C4CC4)cncc3n2)ccn1)c1ccccc1" ; value = > 7.00

###

- STUDY SYSTEM: full-length human PKCι (Homo sapiens, UniProt P41743)
- Construct: Recombinant, full-length human PKCι expressed in Sf21 insect cells is also commercially available
- EXPERIMENT DESCRIPTION: PKCι IC50 IMAP assay, full-length PKCι at 150 μM ATP
- STATED CONDITIONS: read-out: IC50 in IMAP assay against full length PKCi at 150 μM ATP
pIC50: −log10 of the molar value.
Measured pIC50, listed per entry.

Example cases with answers are listed next.
[[record]]
molecule = "FC(F)(F)C1(c2cc3c(-c4nc(N5CCNCC5)c5c(C6CC6)cncc5n4)ccnc3[nH]2)CC1 [Example 1238]"
measured_parameter = "pIC50"
data_value = "> 7.00"

[[record]]
molecule = "FC(F)(F)c1ccc(Nc2cc(-c3nc(N4CCNCC4)c4c(C5CC5)cncc4n3)ccn2)cc1 [Example 595]"
measured_parameter = "pIC50"
data_value = "> 7.00"

[[record]]
molecule = "FC(F)(F)c1ccc(Nc2cc(-c3nc(N4CCNCC4)c4c(C5CC5)cncc4n3)ccn2)cn1 [Example 270]"
measured_parameter = "pIC50"
data_value = "6.00 to 7.00"


As a next step, examine the molecule that follows.
// sample CCCc1nccc2c(N3CCNCC3)nc(-c3ccncc3)nc12 [Example 159] , its pIC50 was 4.40 to 5.00

###

- STUDY SYSTEM: full-length human PKCι (Homo sapiens, UniProt P41743)
- Construct: Recombinant, full-length human PKCι expressed in Sf21 insect cells is also commercially available
- Sequence (P41743 1-596): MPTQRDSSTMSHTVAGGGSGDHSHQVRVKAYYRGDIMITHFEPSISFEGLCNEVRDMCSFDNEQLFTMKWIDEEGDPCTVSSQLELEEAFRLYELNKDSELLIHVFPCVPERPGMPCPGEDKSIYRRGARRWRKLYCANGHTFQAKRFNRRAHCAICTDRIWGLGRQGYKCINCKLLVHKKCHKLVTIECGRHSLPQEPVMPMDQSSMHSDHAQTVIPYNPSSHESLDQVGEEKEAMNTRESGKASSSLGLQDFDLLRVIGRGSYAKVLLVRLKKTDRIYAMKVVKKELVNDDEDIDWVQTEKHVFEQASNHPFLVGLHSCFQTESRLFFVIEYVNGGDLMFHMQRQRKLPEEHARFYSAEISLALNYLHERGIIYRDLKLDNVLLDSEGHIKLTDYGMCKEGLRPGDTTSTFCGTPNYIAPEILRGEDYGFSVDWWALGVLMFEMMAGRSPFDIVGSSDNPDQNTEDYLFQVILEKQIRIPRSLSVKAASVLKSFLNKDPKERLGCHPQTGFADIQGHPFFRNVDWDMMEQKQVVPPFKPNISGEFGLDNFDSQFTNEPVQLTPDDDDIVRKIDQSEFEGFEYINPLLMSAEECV
- EXPERIMENT DESCRIPTION: PKCι IC50 IMAP assay, full-length PKCι at 150 μM ATP
- STATED CONDITIONS: read-out: IC50 in IMAP assay against full length PKCi at 150 μM ATP
MEASURED PARAMETER: IC50

[[record]]
compound = "CN(C)[C@H](CNc1nc(-c2ccncc2)nc2cnccc12)Cc1ccccc1"
measured_parameter = "IC50"
data_value = "100 to 1000 nM"


Summary line: N#Cc1ccnc(Nc2cc(-c3nc(N4CCC(O)C(O)C4)c4c(C5CC5)cncc4n3)ccn2)c1 (racemic) , full-length human PKCι (Homo sapiens, UniProt P41743), reported IC50 = < 100 nM

Item: "COCC(C)(C)c1cc2c(-c3nc(N4CCNCC4)c4c(C5CC5)cncc4n3)ccnc2[nH]1" | System: full-length human PKCι (Homo sapiens, UniProt P41743) | IC50: < 100 nM

// IC50 (full-length human PKCι (Homo sapiens, UniProt P41743)) for COc1cncc2nc(-c3ccnc(Nc4ccccc4)c3)nc(N3CC[C@H](O)[C@H](O)C3)c12 (racemic) = 100 to 1000 nM

###

- STUDY SYSTEM: full-length human PKCι (Homo sapiens, UniProt P41743)
- Construct: Recombinant, full-length human PKCι expressed in Sf21 insect cells is also commercially available
- EXPERIMENT DESCRIPTION: PKCι IC50 IMAP assay, full-length PKCι at 150 μM ATP
- STATED CONDITIONS: read-out: IC50 in IMAP assay against full length PKCi at 150 μM ATP
MEASURED PARAMETER: IC50

Here is how some compounds turned out for IC50.
[[record]]
compound = "Fc1cccc(F)c1Nc1cc(-c2nc(N3CCCNCC3)c3c(C4CC4)cncc3n2)ccn1 [Example 702]"
data_value = "100 to 1000 nM"

[[record]]
compound = "Fc1cc(Cl)cnc1Nc1cc(-c2nc(N3CCNCC3)c3c(C4CC4)cncc3n2)ccn1 [Example 2171]"
data_value = "< 100 nM"


Record summary for Fc1ccc(F)c(Nc2cc(-c3nc(N4CCNCC4)c4c(Nc5c(F)ccc(F)c5F)cncc4n3)ccn2)c1F [Example 261] : reported IC50 = 100 to 1000 nM

###

- STUDY SYSTEM: full-length human PKCι (Homo sapiens)
- Construct: Recombinant, full-length human PKCι expressed in Sf21 insect cells is also commercially available
- EXPERIMENT DESCRIPTION: PKCι IC50 IMAP assay, full-length PKCι at 150 μM ATP
- STATED CONDITIONS: read-out: IC50 in IMAP assay against full length PKCi at 150 μM ATP
Quick reference: IC50 of the listed items.

[[record]]
compound = "COCCN1CCN(c2nc(-c3ccnc(Nc4ccc(F)cc4)c3)nc3cncc(C4CC4)c23)CC1"
data_value = "1000 to 10000 nM"


Next:
Looking up "Fc1ccc(F)c(Nc2cc(-c3nc(N4CCNCC4)c4c(C5CC5)cncc4n3)ccn2)n1" , I found its IC50 recorded as < 100 nM

###

The molecules listed here are annotated with their IC50.
- STUDY SYSTEM: full-length human PKCι (Homo sapiens, UniProt P41743)
- Construct: Recombinant, full-length human PKCι expressed in Sf21 insect cells is also commercially available
- Sequence (P41743 1-596): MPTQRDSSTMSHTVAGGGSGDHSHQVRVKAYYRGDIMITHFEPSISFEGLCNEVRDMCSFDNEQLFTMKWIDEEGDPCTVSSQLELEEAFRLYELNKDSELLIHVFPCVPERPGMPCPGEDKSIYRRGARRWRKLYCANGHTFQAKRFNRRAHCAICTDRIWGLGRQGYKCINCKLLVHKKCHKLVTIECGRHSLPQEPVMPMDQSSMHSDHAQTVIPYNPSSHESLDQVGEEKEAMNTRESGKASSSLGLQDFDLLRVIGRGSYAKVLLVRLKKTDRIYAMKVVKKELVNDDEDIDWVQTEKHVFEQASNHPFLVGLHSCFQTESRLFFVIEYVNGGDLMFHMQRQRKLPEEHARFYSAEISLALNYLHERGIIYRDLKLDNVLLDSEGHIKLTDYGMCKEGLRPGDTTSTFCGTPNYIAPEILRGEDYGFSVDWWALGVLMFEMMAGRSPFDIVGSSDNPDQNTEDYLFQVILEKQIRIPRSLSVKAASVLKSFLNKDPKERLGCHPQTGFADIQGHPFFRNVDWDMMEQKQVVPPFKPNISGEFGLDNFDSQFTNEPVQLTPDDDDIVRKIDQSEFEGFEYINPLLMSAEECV
- EXPERIMENT DESCRIPTION: PKCι IC50 IMAP assay, full-length PKCι at 150 μM ATP
- STATED CONDITIONS: read-out: IC50 in IMAP assay against full length PKCi at 150 μM ATP

Solved cases below.
[[record]]
molecule = "c1ccc(C[C@@H]2CNCCN2c2nc(-c3ccncc3)nc3cnccc23)cc1"
data_value = "1 to 10 µM"

[[record]]
molecule = "FC(F)(F)c1ccccc1Nc1cc(-c2nc(N3CCNCC3)c3c(C4CC4)cncc3n2)ccn1"
data_value = "< 0.1 µM"


Next up:
# IC50 of COc1cncc2nc(-c3ccncc3)nc(N3CCNC(C(=O)NCc4ccccc4)C3)c12 (stereo not drawn) = 1 to 10 µM
